- System: SKBR3 cells express WT PI3Ka
- Assay Name: In vitro cell proliferation, SKBR3 cells (CellTiter-Glo)
- Type: cell-based
- Measurement Context: Homo sapiens, SK-BR-3, 72 h, inhibition of proliferation
pEC50: −log10 of the molar value.
Property Label: pEC50

compound="Cc1cc([C@@H](C)Nc2cccc(F)c2C(=O)O)c2cc(C3C[C@H]3C)n(C)c(=O)c2c1 (single isomer, unassigned) [Example 355]" observed_result="< 4.82"
compound="CNc1ccc(N2CCN(c3cc4c([C@@H](C)Nc5ccccc5C(=O)O)cc(C)cc4c(=O)n3C)CC2)cn1 [Example 233]" observed_result="4.82 to 5.70"
compound="Cc1cc(C(C)Nc2ccccc2C(=O)O)c2cc(N3CCN(C(=O)CC(C)C)CC3)n(C)c(=O)c2c1 (single isomer, unassigned) [Example 32]" observed_result="< 4.82"

The record that follows has no pEC50 shown yet.
Request: Dear colleague, I am looking for the recorded pEC50 of the following compound: Cc1cc([C@@H](C)Nc2ccccc2C(=O)O)c2cc(N3CCN(c4cccnc4C)CC3)n(C)c(=O)c2c1 [Example 206]
Response: 4.82 to 5.70

====

# EC50 annotations
- Test system: SKBR3 cells express WT PI3Ka
- Assay Name: In vitro cell proliferation, SKBR3 cells (CellTiter-Glo)
- Assay type: cell-based
- Measurement Context: Homo sapiens, SK-BR-3, 72 h, inhibition of proliferation

compound="Cc1cc([C@@H](C)Nc2ccccc2C(=O)O)c2cc(-c3cnc(C(C)C)cn3)n(C)c(=O)c2c1 [Example 516]" property_label=EC50 observed_result="> 15 µM"
compound="Cc1cc([C@@H](C)Nc2cccc(C)c2C(=O)O)c2cc(N3CCN(CC(F)(F)F)CC3)n(C)c(=O)c2c1 [Example 297]" property_label=EC50 observed_result="> 15 µM"
compound="C#Cc1ccc(N[C@H](C)c2cc(C)cc3c(=O)n(C)c(N4CCN(CC(F)(F)F)CC4)cc23)c(C(=O)O)n1 [Example 299]" property_label=EC50 observed_result="2 to 15 µM"
compound="C[C@@H](Nc1ccccc1C(=O)O)c1cc(F)cc2c(=O)n(C)c(-c3cnc(OCC(F)(F)F)s3)cc12 [Example 568]" property_label=EC50 observed_result="> 15 µM"
compound="C[C@@H](Nc1ccccc1C(=O)O)c1cc(F)cc2c(=O)n(C)c(-c3cnc(OCC(F)(F)F)c(F)c3)c(F)c12 [Example 569]" property_label=EC50 observed_result="2 to 15 µM"

Request: Entry under review: Cc1cc([C@@H](C)Nc2ccccc2C(=O)O)c2cc(-c3cc(F)c4c(cnn4C)c3)n(C)c(=O)c2c1 [Example 366] . Reported EC50?
Response: 2 to 15 µM

Request: Param item = CCOc1ncc(-c2c(F)c3c([C@@H](C)Nc4ccccc4C(=O)O)cc(C)cc3c(=O)n2C)s1 [Example 536] ; retrieve measured EC50.
Response: > 15 µM

====

- Tested on: SKBR3 cells express WT PI3Ka
- Assay Name: In vitro cell proliferation, SKBR3 cells (CellTiter-Glo)
- Type: cell-based
- Measurement Context: Homo sapiens, SK-BR-3, 72 h, inhibition of proliferation
pEC50: −log10 of the molar value.
Property Label: pEC50

compound=Cc1cc([C@@H](C)Nc2ccccc2C(=O)O)c2cc(N3CCN(c4ccccn4)CC3)n(C)c(=O)c2c1 property_label=pEC50 observed_result="4.82 to 5.70"
compound=Cc1cc([C@@H](C)Nc2ccccc2C(=O)O)c2cc(N3CCN(c4cnc(C(F)(F)F)nc4)CC3)n(C)c(=O)c2c1 property_label=pEC50 observed_result="4.82 to 5.70"
compound="Cc1cc(C(C)Nc2ccccc2C(=O)O)c2cc(N3Cc4ccc(F)cc4C3)n(C)c(=O)c2c1 (single isomer, unassigned)" property_label=pEC50 observed_result="< 4.82"

Now look at this entry.
Request: Consider the compound shown here: Cc1cc(C(C)Nc2ccccc2C(=O)O)c2cc(N3CC(c4ccccc4)C3)n(C)c(=O)c2c1 (centres unmarked) [Example 53] What is its recorded pEC50?
Response: < 4.82

Data origin: patent US20260078103A1
